# pIC50 annotations
- target.system: recombinant human SYK (GST-hSYK fusion protein) (Homo sapiens)
- experimental.conditions: read-out: rhSYK Activity; Table 116A
pIC50: −log10 of the molar value.

[[record]]
molecule = "Cc1cc(Nc2nccc(C(F)F)n2)cc(-c2cnc(C3(O)CCC(C(=O)O)C(C)C3)s2)c1 (centres unmarked) [116A-19]"
measure = "pIC50"
measurement = "> 7.00"


Prompt: Give the measured pIC50 for Cc1cc(Nc2ncc(Cl)c(C)n2)cc(-c2cnc([C@]3(O)CC[C@@H](C(=O)O)C(C)(C)C3)s2)c1 [116A-26]
Completion: > 7.00

====

- target.system: recombinant human SYK (GST-hSYK fusion protein) (Homo sapiens, UniProt P43405)
- assay.details: biochemical
- experimental.conditions: rhSYK Activity, Table 113B
measure: IC50

Record excerpt, results attached:
[[record]]
molecule = "Cc1cc(Nc2nccc(C(F)(F)F)n2)cc(-c2cnc(C3(O)CC(C)C(C(=O)OC(C)C)C(C)C3)s2)c1 (stereo not shown) [Example 113B-27]"
measurement = "100 to 1000 nM"

[[record]]
molecule = "Cc1cc(Nc2nccc(C)n2)cc(-c2cnc(C3(O)C(C)CC(C(=O)O)CC3C)s2)c1 (stereo not shown) [Example 113B-28]"
measurement = "< 100 nM"

[[record]]
molecule = "Cc1cc(Nc2nccc(C(F)(F)F)n2)cc(-c2cnc(C3(O)C(C)CC(C(=O)O)CC3C)s2)c1 (stereo not shown) [Example 113B-30]"
measurement = "< 100 nM"

[[record]]
molecule = "CCOC(=O)C1CC(C)C(O)(c2ncc(-c3cc(C)cc(Nc4nccc(C)n4)c3)s2)CC1C (stereo not shown) [Example 113B-11]"
measurement = "100 to 1000 nM"

[[record]]
molecule = "CCOC(=O)C1CC(C)C(O)(c2ncc(-c3cc(C)cc(Nc4nccc(C(F)(F)F)n4)c3)s2)CC1C (stereo not shown) [Example 113B-19]"
measurement = "< 100 nM"


Prompt: Specify IC50 for Cc1cc(Nc2nccc(C(F)(F)F)n2)cc(-c2cnc(C3(O)CC(C)C(C(=O)O)C(C)C3)s2)c1 (stereo not shown) [Example 113B-24] , system recombinant human SYK (GST-hSYK fusion protein) (Homo sapiens, UniProt P43405).
Completion: < 100 nM

Prompt: Report the value of IC50 obtained on recombinant human SYK (GST-hSYK fusion protein) (Homo sapiens, UniProt P43405) for CCOC(=O)C1CC(C)C(O)(c2ncc(-c3cc(C)cc(Nc4nccc(C(F)(F)F)n4)c3)s2)CC1C (stereo not shown) [Example 113B-17] .
Completion: < 100 nM
